These entries and their values trace back to paper PMC12198292.

Target: NIS (Rattus norvegicus, UniProt Q63008)
Construct: the endogenously NIS-expressing rat FRTL-5 cell line; host or cells: FRTL-5 (CVCL_0265)
Sequence (Q63008 whole entry): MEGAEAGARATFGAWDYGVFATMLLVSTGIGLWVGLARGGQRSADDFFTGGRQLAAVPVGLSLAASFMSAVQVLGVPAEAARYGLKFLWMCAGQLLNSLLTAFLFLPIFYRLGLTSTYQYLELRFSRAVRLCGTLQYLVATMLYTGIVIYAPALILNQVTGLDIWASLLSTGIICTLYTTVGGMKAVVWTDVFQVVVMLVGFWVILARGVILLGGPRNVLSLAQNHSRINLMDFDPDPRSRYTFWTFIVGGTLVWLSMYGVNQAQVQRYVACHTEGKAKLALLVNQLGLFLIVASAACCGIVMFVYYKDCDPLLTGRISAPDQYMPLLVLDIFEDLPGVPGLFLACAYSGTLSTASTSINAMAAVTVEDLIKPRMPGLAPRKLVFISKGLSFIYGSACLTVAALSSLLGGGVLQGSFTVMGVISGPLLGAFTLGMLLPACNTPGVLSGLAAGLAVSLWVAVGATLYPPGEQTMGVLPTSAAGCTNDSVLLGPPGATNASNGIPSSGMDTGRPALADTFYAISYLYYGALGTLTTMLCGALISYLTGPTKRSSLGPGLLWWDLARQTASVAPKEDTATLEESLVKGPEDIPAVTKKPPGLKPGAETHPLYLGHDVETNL
Test: NIS-inhibition assay (iodide uptake, Sandell–Kolthoff reaction) on FRTL-5
Type: cell-based
Settings: mean ± SD, ≥ 3 independent experiments; 2 h exposure; SK reaction
Hi there, I'd appreciate the recorded log10(IC50) for every entry that follows.
A value of 2 here means IC50 of 100 in µM, since values are log10.

Solved entries:
INSERT INTO measurements (molecule, target_or_test_system, data_value) VALUES
  ('CC(C)(c1ccc(O)cc1)c1ccc(O)cc1', 'NIS (Rattus norvegicus, UniProt Q63008)', 2.48),
  ('O=P(Oc1ccccc1)(Oc1ccccc1)Oc1ccccc1 [TPP, Triphenyl phosphate]', 'NIS (Rattus norvegicus, UniProt Q63008)', 1.97),
  ('Oc1cccc(O)c1', 'NIS (Rattus norvegicus, UniProt Q63008)', 3.67),
  ('[O-][Cl+3]([O-])([O-])O [PCL, Perchlorate, reference compound]', 'NIS (Rattus norvegicus, UniProt Q63008)', 0.71),
  ('Oc1cc(Cl)ccc1Oc1ccc(Cl)cc1Cl', 'NIS (Rattus norvegicus, UniProt Q63008)', 1.59),
  ('CC(C)(c1cc(Br)c(O)c(Br)c1)c1cc(Br)c(O)c(Br)c1', 'NIS (Rattus norvegicus, UniProt Q63008)', 1.96),
  ('COc1ccc(C(c2ccc(OC)cc2)C(Cl)(Cl)Cl)cc1 [MET, Methoxychlor, reference compound]', 'NIS (Rattus norvegicus, UniProt Q63008)', 2.34);

In: Form field - read-out: log10(IC50); system: NIS (Rattus norvegicus, UniProt Q63008); submitted item: CCCCOC(=O)c1ccccc1C(=O)OCCCC [DBP, Dibutylphthalate]
Out: 1.97

---

Test system: HEK293T NIS C cells
Experiment: Neutral red uptake viability assay, HEK293T NIS C
Details: read-out: NR IC20 HEK293T NISC, mean±SD, 2 h exposure
assay endpoint: IC20
In your response, the unit should come after the numeric value.

In: Look up IC20 for this compound: CC(C)(c1cc(Br)c(O)c(Br)c1)c1cc(Br)c(O)c(Br)c1
Out: 57.6 µM

---

System: HEK293T NIS C cells
Assay: Neutral red uptake viability assay, HEK293T NIS C
Settings: mean±SD, 2 h exposure
assay endpoint: NR IC20 HEK293T NISC

Examples with answers:
INSERT INTO measurements (compound, data_value) VALUES
  ('NC(=O)N1c2ccccc2C=Cc2ccccc21 [CBZ, Carbamazepine, reference compound]', 'n.e./ n.e.'),
  ('O=C(c1ccc(O)cc1O)c1ccc(O)cc1O [BP2, 2,2′-4,4′-Tetrahydroxy Benzophenone]', 'n.e./ n.e.'),
  ('CCC(Cc1c(I)cc(I)c(N)c1I)C(=O)O (stereo not shown) [IOP, Iopanoic acid, reference compound]', 'n.e. / n.e.'),
  ('COc1ccc(C(c2ccc(OC)cc2)C(Cl)(Cl)Cl)cc1 [MET, Methoxychlor, reference compound]', 'n.e./ n.e.'),
  ('O=C(O)c1ccccc1O [SA, Salicylic acid]', 'n.e. / n.e.'),
  ('N[C@@H](Cc1cc(I)c(Oc2ccc(O)c(I)c2)c(I)c1)C(=O)O [T3, 3,3′,5-Triiodo-L-thyronine]', 'n.e. / n.e.');

In: Which NR IC20 HEK293T NISC value is on record for CCCc1cc(=O)[nH]c(=S)[nH]1 [PTU, 6-Propylthiouracil, reference compound] ?
Out: n.e. / n.e.
